system: leukotriene receptor (guinea pig lung membranes) (Cavia porcellus, UniProt Q2NNR5)
Construct: 20 mg original tissue wet weight of guinea pig lung; tissue Kuiper Rabbit Farm, Gary, IN (animals); host or cells: guinea pig lung, crude membranes
Sequence (Q2NNR5 whole entry): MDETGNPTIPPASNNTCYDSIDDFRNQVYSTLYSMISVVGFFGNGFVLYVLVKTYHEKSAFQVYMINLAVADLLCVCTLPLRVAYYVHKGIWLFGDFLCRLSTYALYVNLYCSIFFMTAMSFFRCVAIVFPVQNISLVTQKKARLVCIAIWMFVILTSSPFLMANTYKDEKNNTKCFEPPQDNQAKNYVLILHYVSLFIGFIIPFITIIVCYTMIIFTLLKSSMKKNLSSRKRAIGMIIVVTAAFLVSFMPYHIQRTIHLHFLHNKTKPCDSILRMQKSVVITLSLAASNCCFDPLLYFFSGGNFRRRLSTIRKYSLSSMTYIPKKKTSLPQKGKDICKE
assay-remarks: Binding of ^3 H-Leukotriene D4 to Guinea Pig Lung Membranes (RBL)
experimental-conditions: 0.2 nM ^3 H-LTD4, 60 min, 25° C.; read-out: Concentration (M) for 50.0 % Inhibition, IC (RBL)
experimental-readout: IC50 (M)

1) O=C(Nc1ccc(CCc2ccc(Cl)cc2)cc1)C1CS(=O)(=O)c2ccccc2C1=O (stereo not shown) :: 1.09e-05
2) O=C(Nc1ccc(CCc2cccc3ccccc23)cc1)C1=C(O)c2ccccc2S(=O)(=O)C1 :: 3.84e-06
3) Nc1ccc(C=Cc2ccc(NC(=O)C3CS(=O)(=O)c4ccccc4C3=O)cc2)cc1 (stereo not shown) :: 3.15e-05
4) O=C(Nc1ccc(CCc2ccc(O)cc2O)cc1)C1=C(O)c2ccccc2S(=O)(=O)C1 :: 5.2e-05

====

system: Human Leukocyte Lipoxygenase
assay-remarks: Human Leukocyte Lipoxygenase Assay (LDA-H)
Type: biochemical
experimental-conditions: acetone-pentane powder enzyme, 234 nm, 24° C., 5 min preincubation; read-out: Concentration (M) for 50.0 % Inhibition, IC (LDAH)
Listing of entries alongside the reported IC50.
experimental-readout: IC50 (M)

1. CCCCCCCCCCCCc1ccc(NC(=O)C2CS(=O)(=O)c3ccccc3C2=O)cc1 (stereo not drawn) :: 1e-06
2. CC(=O)Nc1ccc(CCc2ccc(NC(=O)C3CS(=O)(=O)c4ccccc4C3=O)cc2)cc1 (stereo not drawn) :: 3.5e-05
3. O=C(Nc1ccc(CCc2ccc(-c3ccccc3)cc2)cc1)C1CS(=O)(=O)c2ccccc2C1=O (stereo not drawn) :: 1.1e-05
4. O=C(Nc1ccc(CCc2ccc(O)c(O)c2)cc1)c1oc2ccccc2c1O :: 6.5e-06
5. CN(C)c1ccc(CCc2ccc(NC(=O)C3CS(=O)(=O)c4ccccc4C3=O)cc2)cc1 (stereo not drawn) :: 6.8e-05
6. Cc1cc2[nH]c(C(=O)C(=O)Nc3ccc(CCc4ccc(O)c(O)c4)cc3)c(O)c2cc1C :: 8e-05
7. COc1ccc(CCc2ccc(NC(=O)C(=O)c3oc4ccccc4c3O)cc2)cc1OC :: 1.6e-06
8. O=C(Nc1ccc(CCc2ccccc2)cc1)C1CS(=O)(=O)c2ccccc2C1=O (stereo not drawn) :: 5.1e-05
9. COc1ccc(CCc2ccc(NC(=O)c3oc4ccc5ccccc5c4c3O)cc2)cc1OC :: 1.1e-06
10. O=C(Nc1ccc(CCc2ccc(O)c(O)c2)cc1)C(=O)c1sc2ccc(Cl)cc2c1O :: 3.3e-05
11. CCCCCCCCCCc1ccc(NC(=O)C(=O)C2=C(O)c3ccccc3S(=O)(=O)C2)cc1 :: 7.7e-05
12. O=C(Nc1ccc(CCc2ccc(Cl)cc2)cc1)C(=O)C1=C(O)c2ccccc2SC1 :: 4.5e-05
13. O=C(Nc1ccc(CCc2ccc(Cl)cc2)cc1)C1CS(=O)(=O)c2ccccc2C1=O (stereo not drawn) :: 3.5e-06
14. O=C(Nc1ccc(CCc2ccc(O)cc2)cc1)C1CS(=O)(=O)c2ccccc2C1=O (stereo not drawn) :: 8.2e-05
15. COc1cccc2c(O)c(C(=O)C(=O)Nc3ccc(CCc4ccc(O)c(O)c4)cc3)oc12 :: 2.5e-05
16. O=C(Nc1ccc(CCc2ccc(Cl)c(Cl)c2)cc1)C1CS(=O)(=O)c2ccccc2C1=O (stereo not drawn) :: 1.1e-06
17. O=C(Nc1ccc(CCc2ccc(O)c(O)c2)cc1)c1oc2c(ccc3ccccc32)c1O :: 6.1e-06
18. O=C(Nc1ccc(CCc2cc(O)cc(O)c2)cc1)C1=C(O)c2ccccc2S(=O)(=O)C1 :: 2.5e-05
